This collection of values is drawn from paper PMC10567728.

- assayedTarget: uPAR (Homo sapiens, UniProt Q03405)
- Construct: Recombinant human uPAR^1–283 was expressed; made in house; host or cells: Drosophila melanogaster S2 cells
- Sequence (Q03405 23-305): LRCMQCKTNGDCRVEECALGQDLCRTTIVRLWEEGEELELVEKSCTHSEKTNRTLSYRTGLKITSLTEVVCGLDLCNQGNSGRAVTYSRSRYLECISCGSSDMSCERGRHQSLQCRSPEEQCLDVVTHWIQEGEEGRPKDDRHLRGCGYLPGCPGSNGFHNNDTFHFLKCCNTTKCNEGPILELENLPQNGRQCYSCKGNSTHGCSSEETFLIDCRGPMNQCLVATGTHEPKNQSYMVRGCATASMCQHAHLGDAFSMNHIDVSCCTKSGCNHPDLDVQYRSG
- runDescription: SPR real-time binding kinetics, peptides in solution and immobilised uPAR
- assayConditions: [63Cu]-DOTA labelled peptides, single-cycle SPR
Positions of bridges follow the written chain, without caps; N, C: chain ends. Non-standard residues stand in square brackets, D forms with d. Residues, ends and D or L forms follow the SMILES beside them. *: point of attachment. DOTA = O=C(O)CN1CCN(CC(=O)O)CCN(CC(=O)*)CCN(CC(=O)O)CC1; Cha = N[C@@H](CC1CCCCC1)C(=O)O
Recorded koff by entry

molecule | koff / s⁻¹
CC(C)C[C@@H]1NC(=O)[C@H](Cc2ccc(O)cc2)NC(=O)[C@H](NC(=O)[C@@H](CO)NC(=O)[C@H](Cc2ccccc2)NC(=O)[C@H](CC2CCCCC2)NC(=O)[C@H](CC(=O)O)NC(=O)CNC(=O)CNC(=O)[C@@H](CO)NC(=O)CNC(=O)[C@H](CCC(=O)O)NC(=O)[C@H](CCC(=O)O)NC(=O)CN2CCN(CC(=O)O)CCN(CC(=O)O)CCN(CC(=O)O)CC2)CSSC[C@@H](C(N)=O)NC(=O)[C@H](Cc2c[nH]c3ccccc23)NC1=O [11b] ({DOTA}-EEG[dS]GGD[Cha]F[dS][dC]YLWC-NH2; disulfide 11-15) | 0.0036
CC(C)C[C@H](NC(=O)[C@H](Cc1ccc(O)cc1)NC(=O)[C@@H](CCCNC(=N)N)NC(=O)[C@@H](CO)NC(=O)[C@H](Cc1ccccc1)NC(=O)[C@H](CC1CCCCC1)NC(=O)[C@H](CC(=O)O)NC(=O)CN1CCN(CC(=O)O)CCN(CC(=O)O)CCN(CC(=O)O)CC1)C(=O)N[C@@H](Cc1c[nH]c2ccccc12)C(=O)N[C@@H](CO)C(N)=O | 0.00425
CC(C)C[C@@H]1NC(=O)[C@H](Cc2ccc(O)cc2)NC(=O)[C@H](NC(=O)[C@@H](CO)NC(=O)[C@H](Cc2ccccc2)NC(=O)[C@H](CC2CCCCC2)NC(=O)[C@H](CC(=O)O)NC(=O)CN2CCN(CC(=O)O)CCN(CC(=O)O)CCN(CC(=O)O)CC2)CSSC[C@@H](C(N)=O)NC(=O)[C@H](Cc2c[nH]c3ccccc23)NC1=O [9b] ({DOTA}-D[Cha]F[dS][dC]YLWC-NH2; disulfide 5-9) | 0.00659
CC(C)C[C@H](NC(=O)[C@H](Cc1ccc(O)cc1)NC(=O)[C@@H](CCCNC(=N)N)NC(=O)[C@@H](CO)NC(=O)[C@H](Cc1ccccc1)NC(=O)[C@H](CC1CCCCC1)NC(=O)[C@H](CC(=O)O)NC(=O)CN1CCN(CC(=O)O)CCN(CC(=O)O)CCN(CC(=O)O)CC1)C(=O)N[C@@H](Cc1c[nH]c2ccccc12)C(=O)N[C@@H](CO)C(=O)O | 0.0175

* * *

- assayedTarget: uPAR (Homo sapiens)
- Construct: Recombinant human uPAR^1–283 was expressed; made in house; host or cells: Drosophila melanogaster S2 cells
- runDescription: SPR real-time binding kinetics, peptides in solution and immobilised uPAR
- assayConditions: single cycle SPR, immobilised uPAR, 20 °C
- Description: The real-time binding kinetics of uPAR•peptide interactions were measured with SPR using a Biacore T200™(Cytiva); essentially as described in[56],[77]. […] The binding kinetics for the peptides to immobilised uPAR were measured using a single cycle protocol. […] The kinetic rate constants (kon and koff) were determined by non-linear regression fitting of the curves to the simple bimolecular interaction model (BiacoreT200 Evaluation™ 3.0 software).
Positions of bridges follow the written chain, without caps; N, C: chain ends. Non-standard residues stand in square brackets, D forms with d. Residues, ends and D or L forms follow the SMILES beside them. *: point of attachment. DOTA = O=C(O)CN1CCN(CC(=O)O)CCN(CC(=O)*)CCN(CC(=O)O)CC1; Cha = N[C@@H](CC1CCCCC1)C(=O)O
quantityKind: koff (s⁻¹)

compound | quantityKind | measurement
CC(C)C[C@@H]1NC(=O)[C@H](Cc2ccc(O)cc2)NC(=O)[C@H](NC(=O)[C@@H](CO)NC(=O)[C@H](Cc2ccccc2)NC(=O)[C@H](CC2CCCCC2)NC(=O)[C@H](CC(=O)O)NC(=O)CNC(=O)CNC(=O)[C@@H](CO)NC(=O)CNC(=O)[C@H](CCC(=O)O)NC(=O)[C@H](CCC(=O)O)NC(=O)CN2CCN(CC(=O)O)CCN(CC(=O)O)CCN(CC(=O)O)CC2)CSSC[C@@H](C(N)=O)NC(=O)[C@H](Cc2c[nH]c3ccccc23)NC1=O [11b] ({DOTA}-EEG[dS]GGD[Cha]F[dS][dC]YLWC-NH2; disulfide 11-15) | koff | 0.00356
CC(C)C[C@H](NC(=O)[C@H](Cc1ccc(O)cc1)NC(=O)[C@@H](CO)NC(=O)[C@@H](CO)NC(=O)[C@H](Cc1ccccc1)NC(=O)[C@H](CC1CCCCC1)NC(=O)[C@H](CC(=O)O)NC(=O)CNC(=O)CNC(=O)[C@@H](CO)NC(=O)CNC(=O)[C@H](CCC(=O)O)NC(=O)[C@@H](N)CCC(=O)O)C(=O)N[C@@H](Cc1c[nH]c2ccccc12)C(=O)N[C@@H](CO)C(=O)O [compound 5] (H-EEG[dS]GGD[Cha]F[dS][dS]YLWS-OH; N-terminus assumed) | koff | 0.054
CC(C)C[C@H](NC(=O)[C@H](Cc1ccc(O)cc1)NC(=O)[C@@H](CCCNC(=N)N)NC(=O)[C@@H](CO)NC(=O)[C@H](Cc1ccccc1)NC(=O)[C@H](CC1CCCCC1)NC(=O)[C@H](CC(=O)O)NC(=O)CNC(=O)CNC(=O)[C@@H](CO)NC(=O)CNC(=O)[C@H](CCC(=O)O)NC(=O)[C@@H](N)CCC(=O)O)C(=O)N[C@@H](Cc1c[nH]c2ccccc12)C(=O)N[C@@H](CO)C(N)=O [compound 10] (H-EEG[dS]GGD[Cha]F[dS][dR]YLWS-NH2; N-terminus assumed) | koff | 0.0015
CC(C)C[C@@H]1NC(=O)[C@H](Cc2ccc(O)cc2)NC(=O)[C@H](NC(=O)[C@@H](CO)NC(=O)[C@H](Cc2ccccc2)NC(=O)[C@H](CC2CCCCC2)NC(=O)[C@H](CC(=O)O)NC(=O)CNC(=O)CNC(=O)[C@@H](CO)NC(=O)CNC(=O)[C@H](CCC(=O)O)NC(=O)[C@@H](N)CCC(=O)O)CSSC[C@@H](C(=O)O)NC(=O)[C@H](Cc2c[nH]c3ccccc23)NC1=O [compound 6] (H-EEG[dS]GGD[Cha]F[dS][dC]YLWC-OH; disulfide 11-15; N-terminus assumed) | koff | 0.0103
CC(C)C[C@H](NC(=O)[C@H](Cc1ccc(O)cc1)NC(=O)[C@@H](CCCNC(=N)N)NC(=O)[C@@H](CO)NC(=O)[C@H](Cc1ccccc1)NC(=O)[C@H](CC1CCCCC1)NC(=O)[C@H](CC(=O)O)NC(=O)CN1CCN(CC(=O)O)CCN(CC(=O)O)CCN(CC(=O)O)CC1)C(=O)N[C@@H](Cc1c[nH]c2ccccc12)C(=O)N[C@@H](CO)C(N)=O [8b] | koff | 0.00206
CC(C)C[C@@H]1NC(=O)[C@H](Cc2ccc(O)cc2)NC(=O)[C@H](NC(=O)[C@@H](CO)NC(=O)[C@H](Cc2ccccc2)NC(=O)[C@H](CC2CCCCC2)NC(=O)[C@H](CC(=O)O)NC(=O)CNC(=O)CNC(=O)[C@@H](CO)NC(=O)CNC(=O)[C@H](CCC(=O)O)NC(=O)[C@@H](N)CCC(=O)O)CSSC[C@@H](C(N)=O)NC(=O)[C@H](Cc2c[nH]c3ccccc23)NC1=O [compound 11] (H-EEG[dS]GGD[Cha]F[dS][dC]YLWC-NH2; disulfide 11-15; N-terminus assumed) | koff | 0.00501
CC(C)C[C@H](NC(=O)[C@H](Cc1ccc(O)cc1)NC(=O)[C@@H](CCCNC(=N)N)NC(=O)[C@@H](CO)NC(=O)[C@H](Cc1ccccc1)NC(=O)[C@H](CC1CCCCC1)NC(=O)[C@@H](N)CC(=O)O)C(=O)N[C@@H](Cc1c[nH]c2ccccc12)C(=O)N[C@@H](CO)C(=O)O [compound 1, AE105] | koff | 0.00396
CC(C)C[C@@H]1NC(=O)[C@H](Cc2ccc(O)cc2)NC(=O)[C@H](NC(=O)[C@@H](CO)NC(=O)[C@H](Cc2ccccc2)NC(=O)[C@H](CC2CCCCC2)NC(=O)[C@H](CC(=O)O)NC(=O)CN2CCN(CC(=O)O)CCN(CC(=O)O)CCN(CC(=O)O)CC2)CSSC[C@@H](C(N)=O)NC(=O)[C@H](Cc2c[nH]c3ccccc23)NC1=O [9b] ({DOTA}-D[Cha]F[dS][dC]YLWC-NH2; disulfide 5-9) | koff | 0.00274
CC(C)C[C@H](NC(=O)[C@H](Cc1ccc(O)cc1)NC(=O)[C@@H](CCCNC(=N)N)NC(=O)[C@@H](CO)NC(=O)[C@H](Cc1ccccc1)NC(=O)[C@H](CC1CCCCC1)NC(=O)[C@H](CC(=O)O)NC(=O)CNC(=O)CNC(=O)[C@@H](CO)NC(=O)CNC(=O)[C@H](CCC(=O)O)NC(=O)[C@@H](N)CCC(=O)O)C(=O)N[C@@H](Cc1c[nH]c2ccccc12)C(=O)N[C@@H](CO)C(=O)O [compound 4] (H-EEG[dS]GGD[Cha]F[dS][dR]YLWS-OH; N-terminus assumed) | koff | 0.00558
